Where do the numbers come from? From the supplement of paper PMC6555819.

# Tested on: PPARg homodimer (NR concentration 180 nM)
# Method Notes: PBM binding z-score (relative to random genomic background probes); higher = stronger binding; sequences stand for … in GC…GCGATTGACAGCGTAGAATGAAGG
Measurement Name: PBM binding z-score
Number only, no unit.

Sample answers from the record:
- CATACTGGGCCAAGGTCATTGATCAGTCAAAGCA: 2.02
- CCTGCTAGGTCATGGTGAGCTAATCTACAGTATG: 0.897

Query block: Which PBM binding z-score is listed for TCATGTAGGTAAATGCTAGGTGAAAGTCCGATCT ?
Result block: 0.796

====

# System: RARg homodimer (NR concentration 270 nM)
# Method Notes: PBM binding z-score (relative to random genomic background probes); higher = stronger binding; sequences stand for … in GC…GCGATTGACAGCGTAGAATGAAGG
Measurement Name: PBM binding z-score
# output: bare number, no unit

- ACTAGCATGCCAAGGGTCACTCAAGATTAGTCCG: 3.69

Query block: Observed PBM binding z-score on RARg homodimer (NR concentration 270 nM) for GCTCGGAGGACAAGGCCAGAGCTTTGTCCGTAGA , please.
Result block: -0.004

Query block: Enter reported PBM binding z-score observed with RARg homodimer (NR concentration 270 nM) for CCTACTGGGCCACGAAAGGTCATTTATTCAGTGA
Result block: 4.2

Query block: State its PBM binding z-score on RARg homodimer (NR concentration 270 nM): CCTAGCAGGCCAGTGTCACTCAAGCATTTCGCTT
Result block: -0.171

====

PBM binding z-score by entry:
# Tested on: RARb:RXRa (NR concentration 270 nM, RXRa partner concentration 90 nM)
# Method Notes: PBM binding z-score (relative to random genomic background probes); higher = stronger binding; sequences stand for … in GC…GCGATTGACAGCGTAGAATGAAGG
Lab note: write the figure by itself, no unit.

Worked cases, answers included:
- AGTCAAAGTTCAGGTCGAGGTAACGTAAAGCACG: 4.47
- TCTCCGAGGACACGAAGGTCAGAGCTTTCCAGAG: 3.54
- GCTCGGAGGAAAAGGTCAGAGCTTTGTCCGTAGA: 3.95
- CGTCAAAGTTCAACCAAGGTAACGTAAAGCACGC: 5.25
- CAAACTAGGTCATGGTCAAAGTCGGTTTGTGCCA: 4.01

Consider the additional sequence presented here.
Query block: // map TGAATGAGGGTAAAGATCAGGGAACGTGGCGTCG to recorded PBM binding z-score (system: RARb:RXRa (NR concentration 270 nM, RXRa partner concentration 90 nM))
Result block: 0.817

====

# Test system: PPARg:RXRa 270nM:90nM, anti-RXR (NR concentration 270 nM, RXRa partner concentration 90 nM)
# Method Notes: PBM binding z-score (relative to random genomic background probes); higher = stronger binding; sequences stand for … in GC…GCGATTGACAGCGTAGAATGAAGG
We begin with a simple list: items and their reported PBM binding z-score.

Worked examples follow.
* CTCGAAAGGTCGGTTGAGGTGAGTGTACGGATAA | 1.27
* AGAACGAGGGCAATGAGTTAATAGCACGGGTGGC | 1.23

Consider the record given below.
Query block: Consider the sequence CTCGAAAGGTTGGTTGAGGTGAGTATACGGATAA and give its measured PBM binding z-score.
Result block: 0.107

====

# Test system: PPARg:RXRa 90nM:30nM, anti-RXR (NR concentration 90 nM, RXRa partner concentration 30 nM)
# Method Notes: PBM binding z-score (relative to random genomic background probes); higher = stronger binding; sequences stand for … in GC…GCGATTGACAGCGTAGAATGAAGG
Param threshold (0.9) applies to PBM binding z-score; output condition met when value >= threshold, condition not met when value < threshold.

Query block: Does PBM binding z-score meet or surpass 0.9 for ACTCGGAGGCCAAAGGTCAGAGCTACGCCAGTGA ?
Result block: condition met

Query block: Could you tell me if the measured PBM binding z-score of TTACCAAAGTGAGCTGAGGTCGTTGATCCAACTC reaches 0.9 or more?
Result block: condition not met

Query block: Please indicate if the recorded PBM binding z-score for AATACACGGTCATCGTAGGCCAGAGTACGCACAG meets or exceeds 0.9.
Result block: condition not met

Query block: Reported PBM binding z-score at or above 0.9? GCATATAGGTATTACAAGGTGAAAGTCCGATTGT
Result block: condition not met

Query block: Is the recorded value of PBM binding z-score equal to or greater than 0.9 for this sequence? CAGCCTAGGTCTGGGCCAGTATAGGAGGAACGTT
Result block: condition not met

Query block: Answer whether PBM binding z-score of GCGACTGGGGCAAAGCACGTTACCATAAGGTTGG is greater than or equal to 0.9.
Result block: condition met

Query block: For this sequence, is measured PBM binding z-score 0.9 or higher? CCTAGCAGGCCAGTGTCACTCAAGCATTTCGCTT
Result block: condition not met

Query block: Identify whether the reported PBM binding z-score of the following sequence is 0.9 or greater: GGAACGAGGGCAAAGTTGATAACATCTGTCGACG
Result block: condition met

Query block: In plain terms: is recorded PBM binding z-score at least 0.9 for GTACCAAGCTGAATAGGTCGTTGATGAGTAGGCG ?
Result block: condition not met

Query block: Reported PBM binding z-score reaches at least 0.9 for CCGACTGGGGCATAAGGCTACCATAAGCCAGCCC ?
Result block: condition met

Query block: Please check the record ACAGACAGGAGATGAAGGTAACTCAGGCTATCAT and state if its PBM binding z-score is at or above 0.9.
Result block: condition not met

Query block: Could you verify whether the entry GCTCGGAGGATAAGGTCAGAGCTTTGTCCGTAGA shows PBM binding z-score of no less than 0.9?
Result block: condition met

Query block: Does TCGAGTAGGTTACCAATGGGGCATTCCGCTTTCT have a reported PBM binding z-score of at least 0.9?
Result block: condition met

Query block: Say whether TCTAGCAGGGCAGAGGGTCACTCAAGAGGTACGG shows PBM binding z-score of 0.9 or more.
Result block: condition met

Query block: Assess whether reported PBM binding z-score for ATCTCTAGGTAAGTCTCAGTTCAGTGAAGAACGC sits at 0.9 or higher.
Result block: condition not met

====

Entries and their PBM binding z-score
# Tested on: PPARg:RXRa DBDmut IVT, anti-RXR (DBD mutation: RXRa K156A/R161A, NR concentration 270 nM, RXRa partner concentration 90 nM)
# Method Notes: PBM binding z-score (relative to random genomic background probes); higher = stronger binding; sequences stand for … in GC…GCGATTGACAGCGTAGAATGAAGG

Solved cases below.
- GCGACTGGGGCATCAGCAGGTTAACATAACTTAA: 3.98
- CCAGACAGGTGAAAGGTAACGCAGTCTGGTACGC: 2.46
- CCTACTGGGCCATCAGGTCATTGATATCAACGTT: 4.98

Please examine the following record next.
Query block: Could you share which PBM binding z-score value was measured for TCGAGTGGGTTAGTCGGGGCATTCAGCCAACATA ?
Result block: 1.67

====

# Test system: PPARg:RXRa 30nM:10nM, anti-RXR (NR concentration 30 nM, RXRa partner concentration 10 nM)
# Method Notes: PBM binding z-score (relative to random genomic background probes); higher = stronger binding; sequences stand for … in GC…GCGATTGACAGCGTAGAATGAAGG
Decide using PBM binding z-score: a value greater than or equal to 0.3 is rule met, a smaller one is rule not met.

Field: example entries. Status: answers known.
* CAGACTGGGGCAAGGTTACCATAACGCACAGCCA | rule met
* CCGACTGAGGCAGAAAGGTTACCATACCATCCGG | rule not met

Query block: Does PBM binding z-score meet or surpass 0.3 for CCAAGCAGGCCAGGGTCACTCAAGCATTTCGCTT ?
Result block: rule not met

Query block: Kindly determine if PBM binding z-score recorded for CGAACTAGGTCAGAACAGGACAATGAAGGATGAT is above or exactly 0.3.
Result block: rule met

Query block: Exam item: decide whether the reported PBM binding z-score for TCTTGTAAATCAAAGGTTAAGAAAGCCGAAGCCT is at least 0.3.
Result block: rule met

Query block: Given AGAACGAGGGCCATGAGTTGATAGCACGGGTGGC , state whether its PBM binding z-score is at least 0.3.
Result block: rule not met

====

Recorded PBM binding z-score for the following sequences
# System: PXR:RXRa (NR concentration 270 nM, RXRa partner concentration 90 nM)
# Method Notes: PBM binding z-score (relative to random genomic background probes); higher = stronger binding; sequences stand for … in GC…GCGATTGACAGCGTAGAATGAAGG
Write the number on its own, no unit after it.

Worked examples, 5 sequences total:
• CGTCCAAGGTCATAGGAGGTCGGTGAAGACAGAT = 6.03
• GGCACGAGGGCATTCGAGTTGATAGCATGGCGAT = 3.77
• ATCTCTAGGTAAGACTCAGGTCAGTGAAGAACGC = 0.724
• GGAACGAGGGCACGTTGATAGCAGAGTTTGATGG = 0.508
• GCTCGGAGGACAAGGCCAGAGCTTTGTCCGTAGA = -1.03

Query block: Name the reported PBM binding z-score value associated with the sequence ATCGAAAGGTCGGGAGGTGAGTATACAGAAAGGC
Result block: 2.12

Query block: Look up PBM binding z-score: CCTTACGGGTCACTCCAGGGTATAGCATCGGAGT
Result block: 3.89

Query block: Sample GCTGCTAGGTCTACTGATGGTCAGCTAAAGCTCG — what was its PBM binding z-score?
Result block: -0.901
